- System: NCI-H522 lung
- TEST_DETAILS: NCI-60 one-dose screen, 48 h (100 = growth as untreated, 0 = no growth, -100 = all killed)
- SETUP_CONDITIONS: 10 µM unless noted
This is part of a sample that, as a whole, favours compounds with a hit. Of some 83,000 tested, about 20% had one in any assay.
Bucketed by reported growth, buckets being lo = under 60%, mid = from 60% up to 90%, hi = 90% and over

Lookup: Where would O=C(N/N=C/c1ccc(O)c(O)c1)c1sc2ccccc2c1Cl land among the classes by reported growth?
Found: hi

Lookup: Where would Cc1[nH]n(-c2cccc(Cl)c2)c(=O)c1/C=C1\C=Nc2ccc(Br)cc21 land among the classes by reported growth?
Found: lo

Lookup: Where would CCOC(=O)C1=C(C)NC(C)=C(C(=O)OCC)C1c1cc(Br)c(O)c(OC)c1 land among the classes by reported growth?
Found: lo

Lookup: Where would COc1cc(C2CC(c3cccc(Nc4ccncc4)c3)=NN2c2cc(Cl)cc(Cl)c2)cc(OC)c1OC (stereo unspecified) land among the classes by reported growth?
Found: lo

Lookup: Where would COc1cc(/C=C/C(=O)c2ccc(Nc3ncnc4ccccc34)cc2)cc(OC)c1 land among the classes by reported growth?
Found: mid

Lookup: Where would O=C1NC(=S)NC(=O)C1=Cc1cn(Cc2ccccn2)c2ccccc12 land among the classes by reported growth?
Found: mid
